Below, each entry is listed alongside its reported EC50, GR luciferase reporter activity in HEK293/GRLuc/MSR1 cells.
Target: T1, human macrophage scavenger receptor 1 (MSR1) (human, UniProt P21757 1-451)
T1 sequence (looked up): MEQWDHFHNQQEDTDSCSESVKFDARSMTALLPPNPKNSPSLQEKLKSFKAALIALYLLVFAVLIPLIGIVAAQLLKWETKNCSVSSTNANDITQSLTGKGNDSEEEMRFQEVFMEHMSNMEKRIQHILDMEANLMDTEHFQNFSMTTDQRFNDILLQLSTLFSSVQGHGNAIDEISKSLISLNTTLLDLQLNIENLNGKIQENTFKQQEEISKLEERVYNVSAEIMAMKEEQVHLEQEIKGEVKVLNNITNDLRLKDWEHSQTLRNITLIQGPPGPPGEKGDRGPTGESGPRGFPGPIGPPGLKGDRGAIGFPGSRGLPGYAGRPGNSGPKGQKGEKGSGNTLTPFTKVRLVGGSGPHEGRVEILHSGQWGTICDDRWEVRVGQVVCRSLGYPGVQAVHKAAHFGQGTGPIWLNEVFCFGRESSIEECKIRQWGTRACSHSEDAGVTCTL
Assay: cell-based or functional assay
Write down the numeric answer in nM and omit the unit.

Binder	Measurement
H1H21234N-N297Q-L8-PII-1 (antibody, V domains shown, heavy-chain constant region (not part of this entry): N297Q (EU); linker-payload L8-PII-1 (COT-PEG4-EvcPAB-G-NHCH2-Bud) conjugated as in Example 5; four DAR ADC) VH: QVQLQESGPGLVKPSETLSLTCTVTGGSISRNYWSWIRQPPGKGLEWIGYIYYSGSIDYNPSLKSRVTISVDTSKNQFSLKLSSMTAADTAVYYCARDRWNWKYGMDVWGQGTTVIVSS VL: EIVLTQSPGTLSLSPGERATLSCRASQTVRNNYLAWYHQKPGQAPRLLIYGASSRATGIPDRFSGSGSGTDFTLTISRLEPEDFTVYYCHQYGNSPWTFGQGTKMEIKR	0.899

Lab note: measured EC50, GR luciferase reporter activity in HEK293/GRLuc/MSR1 cells of H1H21234N-N297Q-L14-PII-1 (antibody, V domains shown, heavy-chain constant region (not part of this entry): N297Q (EU); linker-payload L14-PII-1 (DIBAC-GGFG-NHCH2-Bud) conjugated as in Example 5; four DAR ADC) VH: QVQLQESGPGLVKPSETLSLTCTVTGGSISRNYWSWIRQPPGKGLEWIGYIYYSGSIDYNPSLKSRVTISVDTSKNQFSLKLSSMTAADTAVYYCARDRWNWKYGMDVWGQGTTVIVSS VL: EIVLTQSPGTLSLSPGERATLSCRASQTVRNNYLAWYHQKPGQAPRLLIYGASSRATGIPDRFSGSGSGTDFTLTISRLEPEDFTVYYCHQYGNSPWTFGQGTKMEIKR was 0.636

Sure, the documented EC50, GR luciferase reporter activity in HEK293/GRLuc/MSR1 cells for H1H21234N-N297Q-L1-PII-1 (antibody, V domains shown, heavy-chain constant region (not part of this entry): N297Q (EU); linker-payload L1-PII-1 (DIBAC-suc-PEG4-vcPAB-PII-1, payload budesonide) clicked onto azido-PEG3-amine on glutamines; DAR 4) VH: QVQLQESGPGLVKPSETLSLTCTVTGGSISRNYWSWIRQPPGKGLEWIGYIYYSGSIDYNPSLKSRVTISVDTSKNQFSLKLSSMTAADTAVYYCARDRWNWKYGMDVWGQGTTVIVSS VL: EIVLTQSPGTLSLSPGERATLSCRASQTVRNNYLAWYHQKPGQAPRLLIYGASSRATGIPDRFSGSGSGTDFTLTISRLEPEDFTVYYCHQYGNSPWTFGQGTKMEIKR is 0.84

EC50, GR luciferase reporter activity in HEK293/GRLuc/MSR1 cells in this record for H1H21234N-N297Q-L6-PII-9 (antibody, V domains shown, heavy-chain constant region (not part of this entry): N297Q (EU); linker-payload L6-PII-9 (DIBAC-suc-PEG4-PII-9, payload budesonide) conjugated as in Example 5; four DAR ADC) VH: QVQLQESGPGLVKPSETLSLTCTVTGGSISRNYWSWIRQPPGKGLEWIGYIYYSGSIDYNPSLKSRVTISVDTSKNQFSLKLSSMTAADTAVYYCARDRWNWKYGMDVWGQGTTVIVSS VL: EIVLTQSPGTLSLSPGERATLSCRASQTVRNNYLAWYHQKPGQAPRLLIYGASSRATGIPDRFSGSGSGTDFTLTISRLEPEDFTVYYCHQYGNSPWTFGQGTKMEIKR : 3.96

Just so you know, measured EC50, GR luciferase reporter activity in HEK293/GRLuc/MSR1 cells for H1H21234N-N297Q-L13-PII-1 (antibody, V domains shown, heavy-chain constant region (not part of this entry): N297Q (EU); linker-payload L13-PII-1 (COT-GGGG-NHCH2-Bud) conjugated as in Example 5; four DAR ADC) VH: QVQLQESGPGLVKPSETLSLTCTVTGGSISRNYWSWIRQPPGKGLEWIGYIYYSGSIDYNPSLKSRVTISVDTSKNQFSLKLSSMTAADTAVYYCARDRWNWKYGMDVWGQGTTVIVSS VL: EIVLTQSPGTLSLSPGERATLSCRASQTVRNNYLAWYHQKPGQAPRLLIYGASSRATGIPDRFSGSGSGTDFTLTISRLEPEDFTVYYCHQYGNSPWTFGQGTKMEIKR came out at 2.33
